# maps each entry to its growth
Tested on: IGROV1 ovarian
measurement_description: NCI-60 one-dose screen, 48 h (100 = growth as untreated, 0 = no growth, -100 = all killed)
settings: 10 µM unless noted
Compounds without any hit were thinned out: in the full panel of roughly 83,000, 20% have a hit. Active and inactive are the calls of the source. The calls were made as follows: active = growth percent below 10; inactive = the rest.

Consider the following illustrative entries.
Request the reported growth associated with CCNC(=O)Oc1ccc(/C(=C(/C)Cc2ccc(OC)cc2)c2ccc(OCCN3CCCCCC3)cc2)cc1 78% (inactive)

Request the reported growth associated with Brc1ccc(-c2cnc3nonc3n2)cc1 81.1% (inactive)

Request the reported growth associated with COc1ccc(C(c2cc(OC)c(OC)c(OC)c2)N2CCCC2)cc1 (stereo not drawn) 82.9% (inactive)

Request the reported growth associated with C=NNc1ccccc1 88.7% (inactive)

Request the reported growth associated with CCCNc1nc2ccccc2c2c(=O)c3cccc(Cl)c3sc12 70.1% (inactive)

Request the reported growth associated with O=C(Nc1ccc(F)cc1)Nc1ccccc1CNc1nc(Nc2ccc(OCCN3CCCC3)cc2)ncc1Cl 56.2% (inactive)

Request the reported growth associated with Cn1cc(-c2nonc2-c2c[nH]c3ccccc23)c2ccccc21 24.4% (inactive)

# input for lookup
Request the reported growth associated with COc1ccc(C/C(C)=C(\c2ccc(O)cc2)c2ccc(OCCN3CCCC3)cc2)cc1 103% (inactive)

----------
Test system: NCI-H460 lung
measurement_description: NCI-60 one-dose screen, 48 h
settings: 10 µM unless noted
The panel holds about 83,000 compounds, 20% with a hit somewhere; the sample as a whole holds those more often. Active and inactive are the calls of the source. How the source made its calls: active means growth percent below 10; inactive means the rest.
Respond only with the outcome that fits, drawn from yes (active), no (inactive)

The examples below pair each entry with its known result.
Test call for this molecule, please: C#CCn1cnc2c(Nc3cccc(NC(=O)CCl)c3)ncnc21 no

Test call for this molecule, please: C=NNc1ccccc1 no

Test call for this molecule, please: O=C1C(Cl)=C(NCCN2CCOCC2)C(=O)c2ncccc21 yes

Consider the record given below.
Test call for this molecule, please: Brc1ccc(-c2cnc3nonc3n2)cc1 no

----------
System: A549/ATCC NSCLC
measurement_description: NCI-60 one-dose screen, 48 h (100 = growth as untreated, 0 = no growth, -100 = all killed)
settings: 10 µM unless noted
Compounds without any hit were thinned out: in the full panel of roughly 83,000, 20% have a hit. The source made the active and inactive calls. The calls were made as follows: active = growth percent below 10; inactive = the rest.
# maps each entry to its growth

Request the reported growth associated with COc1ccc2nc(Cl)c(/C=C/C(=O)c3ccc(NC(=O)CSc4nnc(-c5ccc(Cl)c(Cl)c5)n4-c4ccccc4)cc3)cc2c1 69.7% (inactive)

Request the reported growth associated with CCOC(=O)NN1CC(O)=C(c2nc(-c3ccc(Br)cc3)cs2)C1=N 88.1% (inactive)

# input for lookup
Request the reported growth associated with Cn1cc(/C=C2/C(=O)Nc3ccccc32)c2ccccc21 86.2% (inactive)

----------
System: NCI-H226 lung
measurement_description: NCI-60 one-dose screen, 48 h (100 = growth as untreated, 0 = no growth, -100 = all killed)
settings: 10 µM unless noted
The panel holds about 83,000 compounds, 20% with a hit somewhere; the sample as a whole holds those more often.
reported_property: growth (%)
Quick reminder: number only, in %, skip the unit.

Consider the following illustrative entries.
Request the reported growth associated with O=C(Cn1nnc2ccccc21)N/N=C/c1ccccc1F 85.8

Request the reported growth associated with COc1cccc(NC(=O)c2cccc(C3CCc4c(cc(OC)c(OC)c4OC)O3)c2)c1 (stereo not drawn) 53.7

Request the reported growth associated with FC(F)(F)c1[nH]ncc1-c1nc2c(N3CCCCC3)cc3[nH]ncc3c2c2c1CCCC2 2.93

Request the reported growth associated with C[N+](C)(C/C=C/c1ccccc1)Cc1ccccc1 93.1

Request the reported growth associated with Nc1c(C(=O)Nc2ccncc2)sc2nc3c(cc12)CCCCC3 72.3

Request the reported growth associated with CCCCCn1sc(=O)n(Cc2ccc(CNC(=O)OCc3ccc4c(Cl)cc(Cl)c(O)c4n3)cc2)c1=O 65.8

Request the reported growth associated with N#Cc1c(N2CCOCC2)nc(=S)[nH]c1-c1ccccc1 72.5

# input for lookup
Request the reported growth associated with NC(=O)OCCn1cc(-c2nc(-c3c[nH]c4ncccc34)cs2)c2ccccc21 53

----------
Tested on: NCI-H460 lung
measurement_description: NCI-60 one-dose screen, 48 h
settings: 10 µM unless noted
This is part of a sample that, as a whole, favours compounds with a hit. Of some 83,000 tested, about 20% had one in any assay. Active and inactive are the calls of the source. How the source made its calls: active means growth percent below 10; inactive means the rest.
Respond only with the outcome that fits, drawn from active, inactive

The examples below pair each entry with its known result.
Test call for this compound, please: CCOC(=O)c1c2c(n3ccccc13)C(=O)c1ncccc1C2=O active

Test call for this compound, please: N=C(N)c1ccc(-c2ccc(-c3ccc(Cl)cc3Cl)s2)cc1F active

Test call for this compound, please: COC(=O)C1=Nc2ccc(F)cc2/C1=C\c1sc(Nc2ccc(O)cc2)nc1O inactive

Test call for this compound, please: Cc1cccc(N2CCN(C(=S)c3ccc4c(c3)OCO4)CC2)c1 active

Test call for this compound, please: COc1cc2nc(Nc3cccc(F)c3)nc(Nc3cc(C)[nH]n3)c2cc1OC active

Test call for this compound, please: COc1cc(/C=C2\C(=O)N(c3c(Cl)cccc3Cl)c3ccccc32)cc(OC)c1OCCCCCCn1c2ccccc2c(=O)c2ccccc21 inactive

Next:
Test call for this compound, please: CCOC(=O)c1c(NC(=O)CSc2n[nH]c3nc4ccccc4n23)sc(CC)c1C inactive

Test call for this compound, please: CCCCCCCCn1ccc2cc(NC(=O)Cn3cc(CN4CCN(CC)CC4)nn3)ccc21 inactive

Test call for this compound, please: COC(=O)/C=C1/SC(=Nc2cccc(Cl)c2)N(CCc2c[nH]c3ccc(O)cc23)C1=O inactive

Test call for this compound, please: COc1ccc(/C=C/C(=O)c2ccc(NC(=O)CSc3nnc(-c4cc(-c5ccccc5)nc5ccccc45)n3-c3ccccc3)cc2)cc1 inactive

Test call for this compound, please: COc1ncc2cc1NS(=O)(=O)c1cccc(c1)C(=O)NCC1=CC=C(S1)c1ncnc3c1SC2=C3C active

Test call for this compound, please: C=CCn1c(SCC(=O)Nc2ccc(C(=O)/C=C/c3cc(OC)c(OC)c(OC)c3)cc2)nnc1-c1cc(-c2ccc(OC)cc2)nc2ccccc12 inactive

Test call for this compound, please: C[C@@H]1CC[C@@]2(OC1)O[C@H]1C[C@H]3[C@@H]4CC=C5C[C@@H](O[C@@H]6O[C@H](CO)[C@@H](O[C@@H]7O[C@@H](CO)[C@H](O)[C@H]7O)[C@H](O)[C@H]6O[C@@H]6O[C@@H](C)[C@H](O)[C@@H](O)[C@H]6O)CC[C@]5(C)[C@H]4CC[C@]3(C)[C@H]1[C@@H]2C active

----------
Tested on: NCI/ADR-RES ovarian
measurement_description: NCI-60 one-dose screen, 48 h (100 = growth as untreated, 0 = no growth, -100 = all killed)
settings: 10 µM unless noted
Compounds without any hit were thinned out: in the full panel of roughly 83,000, 20% have a hit. The source made the active and inactive calls. The calls were made as follows: active = growth percent below 10; inactive = the rest.
reported_property: growth

Request the reported growth associated with N#Cc1c(N2CCOCC2)nc(=S)[nH]c1-c1ccccc1 80.9% (inactive)

----------
System: U251 CNS
measurement_description: NCI-60 one-dose screen, 48 h (100 = growth as untreated, 0 = no growth, -100 = all killed)
settings: 10 µM unless noted
This is part of a sample that, as a whole, favours compounds with a hit. Of some 83,000 tested, about 20% had one in any assay. The source made the active and inactive calls. Rule for the calls: active = growth percent below 10; inactive = the rest.
# maps each entry to its growth

Consider the following illustrative entries.
Request the reported growth associated with CCN(CC)c1ccc(/C=N/NC(=O)c2ccc(Nc3ccnc(C(F)(F)F)c3)cc2)c(O)c1 14% (inactive)

Request the reported growth associated with CCOC(=O)N1CCN(S(=O)(=O)c2oc(-c3ccc(Cl)cc3)nc2C#N)CC1 95.9% (inactive)

Next:
Request the reported growth associated with CC(/C=C1\SC(=S)N(CC(=O)NC(Cc2c[nH]c3ccccc23)C(=O)O)C1=O)=C\c1ccccc1 (stereo not drawn) 105% (inactive)

----------
Tested on: 786-0 renal
measurement_description: NCI-60 one-dose screen, 48 h
settings: 10 µM unless noted
The panel holds about 83,000 compounds, 20% with a hit somewhere; the sample as a whole holds those more often. Active and inactive are the calls of the source. Rule for the calls: active = growth percent below 10; inactive = the rest.
Respond only with the outcome that fits, drawn from Y = active, N = inactive

The examples below pair each entry with its known result.
Test call for this compound, please: O=C(CCCCCCN1CC(=O)N2[C@@H](c3ccc(Cl)cc3)c3[nH]c4ccccc4c3C[C@H]2C1=O)NO N

Test call for this compound, please: COc1ccccc1NC(=O)c1ccc(/C=C/C(=O)c2nccn2C)cc1 Y

Test call for this compound, please: CO[C@H](C(=O)[C@@H](O)[C@@H](C)O)[C@@H]1Cc2cc3cc(O[C@H]4C[C@@H](O[C@H]5C[C@@H](O)[C@H](O)C(C)O5)[C@H](O)C(C)O4)c(C)c(O)c3c(O)c2C(=O)[C@H]1O[C@H]1C[C@@H](O[C@H]2C[C@@H](O[C@H]3C[C@@H](OC)[C@H](O)C(C)O3)[C@@H](O)C(C)O2)C(O)(O)C(C)O1 (some centres not stated) N

Next:
Test call for this compound, please: CCN(CC)c1ccc(N2C(=O)/C(=C/c3cccs3)SC2=S)cc1 N

Test call for this compound, please: S=c1ssnc1-c1cccs1 N

Test call for this compound, please: O=P(O)(O)OCC1OC(n2cnc3c(NCc4ccccc4)ncnc32)C(O)C1O (configuration not stated) N

Test call for this compound, please: CCOC(=O)C(=Cc1cccc(C#N)c1)C(=O)OCC N

Test call for this compound, please: N#Cc1c(-c2cccc([N+](=O)[O-])c2)cc(-c2ccc(Nc3nc(Nc4ccc(F)cc4)nc(Nc4ccc(F)cc4)n3)cc2)nc1N N

Test call for this compound, please: COc1cc(-c2nc(SCCC(C)C)nc(N3CCOCC3)c2C#N)cc(OC)c1OC N

Test call for this compound, please: CCOc1ccc(/C=N\N=C\c2ccc(OCC)cc2)cc1 N

Test call for this compound, please: COc1ccc(/C=C/C(=O)c2ccc(Nc3nc(Nc4ccc(F)cc4)nc(Nc4ccc(Cl)cc4)n3)cc2)cc1 N

Test call for this compound, please: CC(C)CSc1oc(-c2ccccc2)nc1S(=O)(=O)c1ccccc1 N
